Tested on: SK-MEL-2 melanoma
assay.method.text: NCI tumour cell line growth inhibition, 48 h
The entries below are paired with their reported TGI.

Recorded results for 4 compounds are shown here.
Cc1cccc(C)c1NC(=O)C(=O)C1C(=O)N(c2ccccc2)N=C1N (stereo not given): > 100 µM
Cn1c(=O)c(Cc2ccc(F)cc2F)cc2cnc(NC3CCOCC3)nc21: > 25 µM
Cc1ccc(S(=O)(=O)N2CCCCC2CCO)cc1 (stereo not given): > 100 µM
CCOc1ccc2c(c1)/C(=C\C=C\C1CC(C)C3CC(OCC)CCC3N1CC)CC(C)N2CC (stereo not given): 3.35 µM

Note: attention shifts to another entry.
The compound listed as CC(=O)O[C@H]1CC[C@@]2(C)C(=CC[C@@H]3C2CC[C@]2(C)Nc4oncc4CC32)C1 (stereo not given in full) shows TGI equal to > 100 µM
